Test: chemical genetic growth profiling, strain panel (AID 1159580);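 note: tested at 20 µM; growth read once vehicle control cultures reached saturation at 30 °C; lower values mean less growth of the strain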
Settings: S. cerevisiae deletion strains, growth OD, locus YGL253W, strain hxk2
Among all 5,500 compounds or so, about 2,000 (36%) were called active. Not shown: some 18% with an inconclusive outcome. Cut-off read from the data, not from the text of the source: active = normalized growth mostly below about 0.91 (no sharp cut-off); inconclusive = no clear call, values can overlap the other calls; inactive = mostly above about 0.92. Some of the results follow.
Classes used: true (active), false (inactive)

[
  {
    "Compound": "CC(C(=O)O)c1ccc(-c2ccccc2)c(F)c1 (centres undefined)",
    "Label Class": "false"
  },
  {
    "Compound": "C=C1C2CC[C@H]3[C@]4(C)C[C@H](OC5OC(CO)C(OS(=O)(=O)O)C(OS(=O)(=O)O)C5OC(=O)CC(C)C)C[C@@H](C(=O)O)[C@H]4CC[C@]3(C2)[C@H]1O (some centres undefined)",
    "Label Class": "false"
  },
  {
    "Compound": "CNC(C)[C@H](O)c1ccccc1 (some centres undefined)",
    "Label Class": "false"
  },
  {
    "Compound": "CC(CCc1ccccc1)NC(C)C(O)c1ccc(O)cc1 (centres undefined)",
    "Label Class": "false"
  },
  {
    "Compound": "COP(=O)(OC)OC=C(Cl)Cl",
    "Label Class": "false"
  },
  {
    "Compound": "CCC(=O)O[C@H]1[C@H](O[C@@H]2[C@@H](C)[C@H](O[C@H]3C[C@@](C)(OC)[C@@H](O)[C@H](C)O3)[C@@H](C)C(=O)O[C@H](CC)[C@@](C)(O)[C@H](O)[C@@H](C)C(=O)[C@H](C)C[C@@]2(C)O)O[C@H](C)C[C@@H]1N(C)C",
    "Label Class": "true"
  },
  {
    "Compound": "COc1ccc(OC)c(C(O)C(C)N)c1 (centres undefined)",
    "Label Class": "false"
  },
  {
    "Compound": "COc1ccc2cc([C@H](C)CO)ccc2c1",
    "Label Class": "false"
  },
  {
    "Compound": "CN[C@@H](C)[C@@H](O)c1ccccc1",
    "Label Class": "false"
  }
]

----------
Test: chemical genetic growth profiling, strain panel (AID 1159580);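 note: tested at 20 µM; growth read once vehicle control cultures reached saturation at 30 °C; lower values mean less growth of the strain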
Conditions: S. cerevisiae deletion strains, growth OD, locus YHR094C, strain hxt1
Hit rate of the full screen: of about 5,500 compounds, about 2,000 (36%) were called active. Not shown: some 18% with an inconclusive outcome. Cut-off read from the data, not from the text of the source: active = normalized growth mostly below about 0.91 (no sharp cut-off); inconclusive = no clear call, values can overlap the other calls; inactive = mostly above about 0.92. Some of the results follow.
Outcomes: t = active, f = inactive

[
  {
    "Molecule": "CCCCCCCCNC(C)C(O)c1ccc(SC(C)C)cc1 (configuration not stated)",
    "Label Class": "t"
  },
  {
    "Molecule": "O=C(O)c1cc2ccccc2c(Cc2c(O)c(C(=O)O)cc3ccccc23)c1O",
    "Label Class": "f"
  },
  {
    "Molecule": "CN[C@@H](C)[C@@H](O)c1ccccc1",
    "Label Class": "f"
  },
  {
    "Molecule": "Cc1cc(O)c(C=O)c(O)c1C(=O)O",
    "Label Class": "f"
  },
  {
    "Molecule": "CCS(=O)CCSP(=O)(OC)OC (configuration not stated)",
    "Label Class": "f"
  },
  {
    "Molecule": "O=C(O)c1c2ccccc2cc2ccccc12",
    "Label Class": "f"
  },
  {
    "Molecule": "ClC1=C(Cl)C2(Cl)C3C(Cl)C=CC3C1(Cl)C2(Cl)Cl (configuration not stated)",
    "Label Class": "f"
  },
  {
    "Molecule": "CC(NCCc1ccc(O)cc1)C(O)c1ccc(O)cc1 (configuration not stated)",
    "Label Class": "f"
  },
  {
    "Molecule": "CC(CCc1ccccc1)NC(C)C(O)c1ccc(O)cc1 (configuration not stated)",
    "Label Class": "f"
  },
  {
    "Molecule": "CNC(C)[C@H](O)c1ccccc1 (some centres not stated)",
    "Label Class": "f"
  },
  {
    "Molecule": "O=C(O)c1cc2ccccc2[nH]1",
    "Label Class": "f"
  },
  {
    "Molecule": "C[N+](C)(C)CCCCCC[N+](C)(C)C",
    "Label Class": "f"
  },
  {
    "Molecule": "COc1cc2c(cc1OC)C1C(=O)c3c(O)cc4c(c3OC1CO2)C=CC(C)(C)O4 (configuration not stated)",
    "Label Class": "f"
  },
  {
    "Molecule": "COc1cc2c(cc1OC)C1C(=O)c3c(OC)cc4c(c3OC1CO2)CCC(C)(C)O4 (configuration not stated)",
    "Label Class": "f"
  },
  {
    "Molecule": "CC1=C(CC(=O)O)c2cc(F)ccc2/C1=C\\c1ccc(S(C)=O)cc1 (configuration not stated)",
    "Label Class": "f"
  },
  {
    "Molecule": "c1cncc(C2CCCCN2)c1 (configuration not stated)",
    "Label Class": "f"
  },
  {
    "Molecule": "CCCCCCCCCCCCCCCC[N+](C)(C)C",
    "Label Class": "t"
  }
]
